Reported values of MIC for individual entries
# System: Acinetobacter baumannii
# test.protocol: Antibacterial susceptibility testing (MIC), A. baumannii
# Type: cell-based
# measurement.parameters: MDR clinical isolate NM35, read-out: MIC A. baumannii NM35

Worked cases, MIC given:
- compound: "CC[C@H](c1ccc(O)cc1)[C@@H](CC)c1ccc(F)cc1"
  MIC: "> 500 µg/mL"
- compound: "CC(C)NCC(O)COc1cccc2[nH]c3ccccc3c12 (stereo not drawn)"
  MIC: "> 500 µg/mL"

Next item in the queue.
q: # return recorded MIC for entry CC(=O)Nc1cccc(-c2ccccc2Cl)c1 [S1.7, N-[3-(2-chlorophenyl)phenyl]acetamide]
a: > 500 µg/mL

----------
# test.system: E. coli PhoR (PhoR^E) (Escherichia coli, UniProt P08400)
# Construct: The catalytic portion (DHp and CA domain) of E. coli PhoR (PhoR^E); made in house; host or cells: E. coli RIL
# Sequence (P08400 210-425): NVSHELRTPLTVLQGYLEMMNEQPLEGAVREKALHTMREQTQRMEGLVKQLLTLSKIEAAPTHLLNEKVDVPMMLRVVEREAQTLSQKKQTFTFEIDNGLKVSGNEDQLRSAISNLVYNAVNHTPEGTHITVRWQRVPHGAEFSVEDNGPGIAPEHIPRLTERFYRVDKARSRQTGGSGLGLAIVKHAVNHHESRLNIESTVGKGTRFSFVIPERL
# test.protocol: In vitro autophosphorylation kinase assay with γ-32P-ATP, PhoR^E
# Assay type: biochemical
# measurement.parameters: IC50 PhoR^E, autophosphorylation, one time point (30 sec), 10% DMSO
pIC50: −log10 of the molar value.
measurement.kind: pIC50

Reference set, count: 5
- molecule: "CNC(=O)NC(=O)CSc1nc2sc3c(c2c(=O)n1-c1ccccc1F)CCCC3 [S4]"
  recorded.measurement: "< 2.30"
- molecule: "CC(C)(C)c1ccc(OCc2c[nH]cn2)cc1 [F1.10]"
  recorded.measurement: "< 2.70"
- molecule: "Brc1ccc(C2=CSC3=NCCN23)cc1 [F1.7]"
  recorded.measurement: "< 2.70"
- molecule: "c1ccc2cc(CNc3ccc4c(c3)OCCO4)ccc2c1 [S7]"
  recorded.measurement: "< 2.30"
- molecule: "COc1ccc(-c2csc(N)n2)cc1OC [F1.9]"
  recorded.measurement: "< 2.70"

q: # return pIC50 for COc1cc(NCc2ccccc2)ccc1NC(C)=O [S1.18] , test system: E. coli PhoR (PhoR^E) (Escherichia coli, UniProt P08400)
a: < 2.70

q: Supply pIC50 measured with E. coli PhoR (PhoR^E) (Escherichia coli, UniProt P08400) for CC(=O)Nc1ccc(C(=O)C(O)c2ccc(NC(C)=O)cc2)cc1 (stereo not drawn) [S1.12] .
a: < 2.70

q: Find the measured pIC50 of NCCc1ccc2c(c1)[nH]c1ccccc12 [F2.3] with E. coli PhoR (PhoR^E) (Escherichia coli, UniProt P08400) as test system.
a: < 2.70

q: For E. coli PhoR (PhoR^E) (Escherichia coli, UniProt P08400), give pIC50 of the listed molecule: CC(=O)Nc1cccc(C=Cc2ccc([N+](=O)[O-])cc2)c1 [S1.11]
a: > 2.70

q: Write down measured pIC50 (E. coli PhoR (PhoR^E) (Escherichia coli, UniProt P08400)) for this molecule. CC(NC(=O)C1CC(=O)N(c2ccccc2)C1)c1cccc(NC(=O)c2ccccc2)c1 (stereo not drawn) [S3]
a: < 2.30

q: Find the measured pIC50 of CC(=O)Nc1cccc(OCc2cccc([N+](=O)[O-])c2)c1 [S1.17] with E. coli PhoR (PhoR^E) (Escherichia coli, UniProt P08400) as test system.
a: < 2.70

q: Provide pIC50, recorded with E. coli PhoR (PhoR^E) (Escherichia coli, UniProt P08400), of O=c1c2ccccc2[nH]c2ccc(O)cc12 [F2.2]
a: > 2.70
